- System: Staphylococcus aureus
- protocol-text: Antibacterial activity against Staphylococcus aureus ATCC 25923 at 400 ug/disc after 18 hrs by disc diffusion assay
- Format: functional
- experimental-conditions: ATCC 25923, 18 h, read-out: IZ
measurement-type: zone of inhibition at 400 µg/disc (mm)

>>> measured_number("C=CCOC(=O)[C@@H](C)[C@H](OC)[C@H](C)[C@H]1O[C@@]2(CC[C@@](C)([C@H]3CC[C@@](CC)([C@@H]4O[C@@H]([C@H]5O[C@@](O)(CO)[C@H](C)C[C@@H]5C)C[C@@H]4C)O3)O2)C[C@H](O)[C@H]1C")
11
>>> measured_number("CC[C@@]1([C@@H]2O[C@@H]([C@H]3O[C@@](O)(CO)[C@H](C)C[C@@H]3C)C[C@@H]2C)CC[C@H]([C@]2(C)CC[C@]3(C[C@H](O)[C@@H](C)[C@@H]([C@@H](C)[C@@H](OC)[C@H](C)C(=O)O)O3)O2)O1 [MONENSIN]")
22
>>> measured_number("CC[C@@]1([C@@H]2O[C@@H]([C@H]3O[C@@](O)(CO)[C@H](C)C[C@@H]3C)C[C@@H]2C)CC[C@H]([C@]2(C)CC[C@]3(C[C@H](O)[C@@H](C)[C@@H]([C@@H](C)[C@@H](OC)[C@H](C)C(=O)OCCOCCOCCOC)O3)O2)O1")
19
>>> measured_number("CC[C@@]1([C@@H]2O[C@@H]([C@H]3O[C@@](O)(CO)[C@H](C)C[C@@H]3C)C[C@@H]2C)CC[C@H]([C@]2(C)CC[C@]3(C[C@H](O)[C@@H](C)[C@@H]([C@@H](C)[C@@H](OC)[C@H](C)C(=O)OCCN4CCOCC4)O3)O2)O1")
20
